- Organism: Homo sapiens
- protocol-details: Selectivity ratio, Ki for human CB2 receptor to Ki for human CB1 receptor
measured-quantity: Ratio Ki

Example entries and their recorded answers appear below.
Cc1c(C(=O)NCc2ccc(F)cc2)oc2ccc(S(=O)(=O)N3CC(C)CC(C)C3)cc12 (centres undefined): 65
Cc1c(C(=O)NCc2ccccc2Cl)oc2ccc(S(=O)(=O)N3CC(C)CC(C)C3)cc12 (centres undefined): 83
CCCCNC(=O)c1oc2ccc(S(=O)(=O)N3CC(C)CC(C)C3)cc2c1C (centres undefined): 100

(A) COc1ccccc1CNC(=O)c1oc2ccc(S(=O)(=O)N3CC(C)CC(C)C3)cc2c1C (centres undefined)
(B) CCOc1ccccc1CNC(=O)c1oc2ccc(S(=O)(=O)N3CC(C)CC(C)C3)cc2c1C (centres undefined)
(C) Cc1c(C(=O)NCCc2ccccc2)oc2ccc(S(=O)(=O)N3CC(C)CC(C)C3)cc12 (centres undefined)
Rank order required: Ratio Ki, descending. Your answer should be the labels, listed in the requested order.
A, B, C
(A: 393, B: 102, C: 30)

(A) Cc1c(C(=O)NC2CCCCC2)oc2ccc(S(=O)(=O)N3CC(C)CC(C)C3)cc12 (centres undefined)
(B) Cc1c(C(=O)NCc2ccccc2)oc2ccc(S(=O)(=O)N3CC(C)CC(C)C3)cc12 (centres undefined)
Task for the reader: decide whether A or B has the larger Ratio Ki. Mark your selection by writing its label.
A
